Reference source for all entries: PubChem BioAssay (NCI)

Test system: PC-3 prostate
Test: NCI-60 one-dose screen, 48 h
Settings: 10 µM unless noted
This is part of a sample that, as a whole, favours compounds with a hit. Of some 83,000 tested, about 20% had one in any assay. Activity calls are given as the source filed them. How the source made its calls: active means growth percent below 10; inactive means the rest.
Answer with one of the outcomes active, inactive

// return assay outcome for NC(=S)N1N=C(c2ccc(Cl)cc2)CC1c1cc2ccccc2[nH]c1=O (stereo unspecified) inactive

// return assay outcome for COc1ccc(-c2ccc(-c3ccc(C(=N)N)s3)s2)cc1 active

// return assay outcome for CCCCCCCCCCCC1=NC(C)(C)CN1CCO inactive

// return assay outcome for N/C(=N\OC(=O)c1ccccc1)C(C(=O)NOC(=O)c1ccccc1)C1CCCCC1 (stereo unspecified) inactive
